Target: PLK1 kinase domain (Homo sapiens, UniProt P53350)
Construct: made in house; host or cells: baculovirus infected T. ni cells
Sequence (P53350 21-346): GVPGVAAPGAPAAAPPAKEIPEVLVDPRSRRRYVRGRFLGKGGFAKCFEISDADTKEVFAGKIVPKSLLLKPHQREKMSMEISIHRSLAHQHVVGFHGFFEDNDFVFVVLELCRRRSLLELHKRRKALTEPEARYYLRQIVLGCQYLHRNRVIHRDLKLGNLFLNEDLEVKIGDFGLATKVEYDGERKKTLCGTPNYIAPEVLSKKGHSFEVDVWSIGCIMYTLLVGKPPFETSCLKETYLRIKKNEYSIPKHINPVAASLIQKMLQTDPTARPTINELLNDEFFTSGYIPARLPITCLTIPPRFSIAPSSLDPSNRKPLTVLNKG
Experiment: Assay for Inhibition of PLK1 (SPA, 33P-ATP)
Assay type: biochemical
Conditions: 2 nM PLK1 kinase domain, 1 μM ATP, 22° C.; read-out: PLK1 pIC50 (converted)
value.kind: IC50

Look over these answered cases.
chemical.structure | IC50
C[C@@H](Oc1cc(-n2cnc3cc(-c4ccc(NCCCN5CCN(C)CC5)nn4)ccc32)sc1C(N)=O)c1ccccc1Cl | < 100 nM
C[C@@H](Oc1cc(-n2cnc3cc(-c4ccc(NCCO)nc4)ccc32)sc1C(N)=O)c1ccccc1Cl | < 100 nM

input: IC50 for C[C@@H](Oc1cc(-n2cnc3cc(-c4cnc(NCCN(C)C)nc4)ccc32)sc1C(N)=O)c1ccccc1Cl ?
output: < 100 nM

input: Now this one: C[C@@H](Oc1cc(-n2cnc3cc(-c4ccc(NCCN(C)C)nc4)ccc32)sc1C(N)=O)c1ccccc1Cl
output: < 100 nM

input: C[C@@H](Oc1cc(-n2cnc3cc(-c4ccnc(NCCN(C)C)n4)ccc32)sc1C(N)=O)c1ccccc1C(F)(F)F ?
output: < 100 nM

The values you see were collected from patent US20100056525A1.
